Entry source: the supplement of paper PMC13380429

# Test system: Vero E6 infected with SARS-CoV-2
# protocol: inhibition of SARS-CoV-2 cytopathic effect; higher = more antiviral protection, active = above 15
# measurement_setup: 1 nM; 48 h
measured_quantity: inhibition of SARS-CoV-2 cytopathic effect (%)

>  <molecule>
COc1ccc2c(c1)C(=O)N(CCc1ccc(S(=O)(=O)NC(=O)NC3CCCCC3)cc1)C(=O)C2(C)C [gliquidone]

>  <readout_units>
%

>  <readout_value>
-1.78

$$$$
>  <molecule>
N#C[C@@H]1CCCN1C(=O)CNC12CC3CC(CC(O)(C3)C1)C2 [vildagliptin]

>  <readout_units>
%

>  <readout_value>
0.17

$$$$
>  <molecule>
O=C(O)c1ccccc1C(=O)Nc1ccc(S(=O)(=O)Nc2nccs2)cc1 [phthalylsulfathiazole]

>  <readout_units>
%

>  <readout_value>
-0.6

$$$$
>  <molecule>
CCOc1ccc(-c2ccc(Cn3c(CC(C)(C)C(=O)O)c(SC(C)(C)C)c4cc(OCc5ccc(C)cn5)ccc43)cc2)cn1

>  <readout_units>
%

>  <readout_value>
1.07

$$$$
>  <molecule>
C/C(O)=C(\C#N)C(=O)Nc1ccc(C(F)(F)F)cc1 [teriflunomide]

>  <readout_units>
%

>  <readout_value>
3.27

$$$$
>  <molecule>
CCO[C@@H]1OC(=O)C[C@@H]1NC(=O)[C@@H]1CCCN1C(=O)[C@@H](NC(=O)c1ccc(N)c(Cl)c1)C(C)(C)C

>  <readout_units>
%

>  <readout_value>
-2.56

$$$$
>  <molecule>
CNCC(O)c1ccc(O)c(O)c1 (racemic) [DL-Adrenaline]

>  <readout_units>
%

>  <readout_value>
1.39

$$$$
>  <molecule>
CC1CC(OC(=O)C(O)c2ccccc2)CC(C)(C)C1 (stereo not drawn) [cyclandelate]

>  <readout_units>
%

>  <readout_value>
-0.8

$$$$

---

# Test system: Vero E6 infected with SARS-CoV-2
# protocol: inhibition of SARS-CoV-2 cytopathic effect; higher = more antiviral protection, active = above 15
# measurement_setup: 1 nM; 48 h
measured_quantity: inhibition of SARS-CoV-2 cytopathic effect (%)

>  <molecule>
NNC(=O)CN1C(=O)CN=C(c2ccccc2)c2cc(Br)ccc21

>  <readout_units>
%

>  <readout_value>
0.8

$$$$
>  <molecule>
O=C1c2ccccc2C(=O)C1c1ccc(Cl)cc1

>  <readout_units>
%

>  <readout_value>
-5.54

$$$$
>  <molecule>
CCOc1c2c(c(OCC)c3ccccc13)C(=O)N(c1ccc(CC(=O)NS(=O)(=O)c3ccccc3)cc1)C2

>  <readout_units>
%

>  <readout_value>
2.87

$$$$
>  <molecule>
CCOc1ccc2nc3cc(N)ccc3c(N)c2c1 [ethacridine-lactate-monohydrate]

>  <readout_units>
%

>  <readout_value>
-0.84

$$$$
>  <molecule>
CCC(NC(C)C)C(O)c1ccc(O)c2[nH]c(=O)ccc12 (stereo not given)

>  <readout_units>
%

>  <readout_value>
-1.54

$$$$

---

inhibition of SARS-CoV-2 cytopathic effect reference
# System: Vero E6 infected with SARS-CoV-2
# protocol: inhibition of SARS-CoV-2 cytopathic effect; higher = more antiviral protection, active = above 15
# measurement_setup: 833.33 nM; 48 h
measured_quantity: inhibition of SARS-CoV-2 cytopathic effect

>  <compound>
O=C(CNC(=O)c1ccc(Cl)cc1)NO

>  <readout_value>
-0.58% (inactive)

$$$$
>  <compound>
C=C(CC)C(=O)c1ccc(OCC(=O)O)c(Cl)c1Cl

>  <readout_value>
4.17% (inactive)

$$$$
>  <compound>
CC(C)c1cc(CNc2nc(Nc3cc(C4CC4)[nH]n3)cc(N3CCN(C)CC3)n2)on1

>  <readout_value>
-4.78% (inactive)

$$$$
>  <compound>
CC(C)N(CC[C@H](c1ccccc1)c1cc(CO)ccc1O)C(C)C [5-hydroxymethyl-tolterodine]

>  <readout_value>
2.8% (inactive)

$$$$
>  <compound>
CC(=O)OCC(=O)[C@@]1(O)CC[C@H]2[C@@H]3CCC4=CC(=O)C=C[C@]4(C)[C@@]3(Cl)[C@@H](Cl)C[C@@]21C [dichlorisone-acetate]

>  <readout_value>
-2.97% (inactive)

$$$$
>  <compound>
CCOC(=O)C1=C(C)NC(c2ccccc2)=C(C(=O)OCc2ccc([N+](=O)[O-])cc2)[C@@H]1C#Cc1ccccc1

>  <readout_value>
1.51% (inactive)

$$$$
>  <compound>
COc1cc2c(cc1OC)[C@H](C)NCC2 [Isoquinoline,-6,7-dimethoxy-1-methyl-1,2,3,4-tetrahydro,]

>  <readout_value>
-1.82% (inactive)

$$$$
>  <compound>
NCCCC(O)(P(=O)(O)O)P(=O)(O)O [alendronate]

>  <readout_value>
-0.56% (inactive)

$$$$
